- System: Fusarium virguliforme (Fv)
- methodNotes: Growth inhibition assay of fungal pathogens, Fv
- Type: cell-based
- studyConditions: 48 h, growth inhibition vs 2% DMSO control at 48 hours, read-out: Concentration at 90% Inhibition Fv
measure: IC90 (µg/mL)
Number only, in µg/mL; omit the unit.

Below are worked cases with known answers.
COc1ccc(F)cc1[C@H](Cn1c(=O)n(C(C)(C)C(=O)NC(C)C)c(=O)c2c(C)c(-n3nccn3)sc21)OCCC#N ... 0.08
CCNC(=O)C(C)(C)n1c(=O)c2c(C)c(-n3nccn3)sc2n(C[C@H](OCC(C)C)c2cc(F)ccc2OC)c1=O ... 0.4
C=CCN(C)C(=O)C(C)(C)n1c(=O)c2c(C)c(-n3nccn3)sc2n(C[C@H](OC2CCOCC2)c2cc(F)ccc2OC)c1=O ... 2
COc1ccc(F)cc1[C@H](Cn1c(=O)n(C(C)(C)C(=O)N2CC=CC2)c(=O)c2c(C)c(-n3nccn3)sc21)OC(C)C ... 0.4
COCCO[C@@H](Cn1c(=O)n([C@H](C)C(=O)N2CCCC2)c(=O)c2c(C)c(-n3nccn3)sc21)c1cc(F)ccc1OC ... 0.4

Q: Consider the compound COCCCO[C@@H](Cn1c(=O)n(C(C)(C)C(=O)N2CCCC2)c(=O)c2c(C)c(-n3nccn3)sc21)c1cc(F)ccc1OC and give its measured IC90.
A: 0.4

Q: Consider the compound COc1ccc(F)cc1[C@H](Cn1c(=O)n(C(C)(C)C(=O)N2CCCC2)c(=O)c2c(C)c(-n3nccn3)sc21)OC1CCC(=O)CC1 and give its measured IC90.
A: 0.4

Q: Consider the compound COc1ccc(F)cc1[C@H](Cn1c(=O)n(C(C)(C)C(=O)N2CC=CC2)c(=O)c2c(C)c(-n3nccn3)sc21)OC[C@@H](C)O and give its measured IC90.
A: 0.4

Q: Consider the compound COc1ccc(F)cc1[C@H](Cn1c(=O)n(C(C)(C)C(=O)N2CC=CC2)c(=O)c2c(C)c(-n3nccn3)sc21)OC1CCOCC1 and give its measured IC90.
A: 0.4

Q: Consider the compound COc1ccc(F)cc1[C@H](Cn1c(=O)n(C(C)(C)C(N)=O)c(=O)c2c(C)c(-n3nccn3)sc21)OCC(C)C and give its measured IC90.
A: 2

Q: Consider the compound COc1ccc(F)cc1[C@H](Cn1c(=O)n(C(C)(C)C(N)=O)c(=O)c2c(C)c(-n3nccn3)sc21)OC1CCOCC1 and give its measured IC90.
A: 2

Q: Consider the compound COCCCO[C@@H](Cn1c(=O)n([C@H](C)C(=O)NC(C)C)c(=O)c2c(C)c(-n3nccn3)sc21)c1cc(F)ccc1OC and give its measured IC90.
A: 0.08

---

IC90 values for the compounds below.
- Test system: Septoria tritici (St)
- methodNotes: Growth inhibition assay of fungal pathogens, St
- Format: cell-based
- studyConditions: Zymoseptoria tritici, 48 h, Septoria tritici; growth inhibition at 48 hours vs 2% DMSO control; read-out: Concentration at 90% Inhibition St

COc1ccc(F)cc1[C@H](Cn1c(=O)n([C@@H](C)C(N)=O)c(=O)c2c(C)c(-n3nccn3)sc21)OCC(C)(C)C#N ... > 50 µg/mL
CCNC(=O)[C@H](C)n1c(=O)c2c(C)c(-n3nccn3)sc2n(C[C@H](OCCC#N)c2cc(F)ccc2OC)c1=O ... > 50 µg/mL

Q: Consider the compound COc1ccc(F)cc1[C@H](Cn1c(=O)n([C@H](C)C(=O)N(C)C(C)C)c(=O)c2c(C)c(-n3nccn3)sc21)OCCC#N and give its measured IC90.
A: > 50 µg/mL
